Reference source: the FLAb antibody collection (doi:10.7554/elife.23156)

B1: scFv; the commonest letter at each place (parent)
chain 1: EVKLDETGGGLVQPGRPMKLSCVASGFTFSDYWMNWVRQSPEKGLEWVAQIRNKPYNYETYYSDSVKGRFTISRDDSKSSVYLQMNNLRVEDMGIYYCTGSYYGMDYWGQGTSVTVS
chain 2: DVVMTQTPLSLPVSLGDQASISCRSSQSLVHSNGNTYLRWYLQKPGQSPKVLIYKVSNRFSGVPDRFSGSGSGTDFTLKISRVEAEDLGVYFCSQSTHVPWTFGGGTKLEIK

- Variants of: B1
- TEST_DETAILS: yeast surface expression (ratio to wild type); higher = more expressed
- APPLIED_CONDITIONS: format: scFv 4-4-20, heavy + light
Label scheme for yeast surface expression: lower than 0.6 is Not satisfied, 0.6 and above is Satisfied.

q: Determine whether measured yeast surface expression meets or exceeds 0.6 for chain 1 W36H
a: Not satisfied

q: Check the entry chain 1 G104V D106P : does yeast surface expression equal or exceed 0.6?
a: Not satisfied

q: Check if yeast surface expression >= 0.6 (inclusive). Item: chain 1 G104Q Y107G W108I
a: Not satisfied

q: Form field: yeast surface expression at least 0.6? Entry: chain 1 Y103F M105T
a: Satisfied

q: // inclusive: yeast surface expression at least 0.6? input: chain 1 G100T G104V D106E
a: Not satisfied

q: Is reported yeast surface expression greater than or equal to 0.6 here: chain 1 G100K W108H
a: Not satisfied

q: Is reported yeast surface expression greater than or equal to 0.6 here: chain 1 Y103T D106S
a: Satisfied

q: hey, is yeast surface expression for this one >= 0.6? chain 1 T28Q W33V
a: Satisfied

q: Confirm if yeast surface expression reported for the variant chain 1 Y32S V37F is 0.6 or above.
a: Satisfied

q: // inclusive: yeast surface expression at least 0.6? input: chain 1 W33R V37W
a: Not satisfied

q: Is it the case that chain 1 M34A V37I has yeast surface expression reaching or exceeding 0.6?
a: Satisfied

q: Is the recorded value of yeast surface expression equal to or greater than 0.6 for this variant? chain 1 T28M S30L
a: Satisfied

q: Please tell me: is the variant chain 1 D106F G109A at or over 0.6 in terms of yeast surface expression?
a: Not satisfied

q: Is reported yeast surface expression greater than or equal to 0.6 here: chain 1 Y102G M105C
a: Satisfied

q: Is yeast surface expression at least 0.6? Consider chain 1 S30D D31G W33A
a: Satisfied

q: Say whether chain 1 G100I Y107P W108I shows yeast surface expression of 0.6 or more.
a: Not satisfied

q: Textbook exercise: given the entry chain 1 M105Q G109M , state whether its yeast surface expression is greater than or equal to 0.6.
a: Not satisfied

q: Check this variant for yeast surface expression at or above 0.6: chain 1 S101D G104D Y107K
a: Satisfied

q: Does yeast surface expression meet or surpass 0.6 for chain 1 S101L Y102V ?
a: Not satisfied

q: Quick check: does chain 1 F29T M34K have yeast surface expression greater than or equal to 0.6?
a: Not satisfied

q: Could you verify whether the entry chain 1 S101V M105H W108H shows yeast surface expression of no less than 0.6?
a: Not satisfied

q: Could you please find out whether chain 1 F29M W36V has yeast surface expression that meets 0.6 or exceeds it?
a: Satisfied

q: Test whether the variant chain 1 S30D V37F records yeast surface expression of 0.6 or higher.
a: Satisfied

q: Dear colleague, could you confirm whether chain 1 Y102I has yeast surface expression at or above 0.6?
a: Satisfied

q: Could you please find out whether chain 1 G100R Y103V W108N has yeast surface expression that meets 0.6 or exceeds it?
a: Not satisfied

q: hey, is yeast surface expression for this one >= 0.6? chain 1 Y102D
a: Satisfied

q: Hi team, for chain 1 Y103I G104P G109M , is the recorded yeast surface expression at or above 0.6?
a: Not satisfied

q: Determine whether measured yeast surface expression meets or exceeds 0.6 for chain 1 M34Y W36V
a: Not satisfied

q: Is the recorded value of yeast surface expression equal to or greater than 0.6 for this variant? chain 1 D31R W33S M34P
a: Not satisfied

q: Determine whether measured yeast surface expression meets or exceeds 0.6 for chain 1 M34I V37I
a: Satisfied

q: Decide: yeast surface expression of chain 1 T28K F29Y >= 0.6?
a: Satisfied

q: Is yeast surface expression for chain 1 W33Y at or above 0.6?
a: Satisfied

q: Item chain 1 G100N G104F with yeast surface expression of 0.6 or above?
a: Not satisfied

q: Is reported yeast surface expression greater than or equal to 0.6 here: chain 1 F29G S30E
a: Satisfied

q: Textbook exercise: given the entry chain 1 M105C D106S , state whether its yeast surface expression is greater than or equal to 0.6.
a: Satisfied

q: Say whether chain 1 S101G Y103R shows yeast surface expression of 0.6 or more.
a: Satisfied

q: Hi team, for chain 1 S30A , is the recorded yeast surface expression at or above 0.6?
a: Satisfied

q: Check this variant for yeast surface expression at or above 0.6: chain 1 W108E G109K
a: Not satisfied

q: State whether the measured yeast surface expression reaches 0.6, counting equality as reaching it, for chain 1 G104K Y107P G109N
a: Not satisfied

q: Textbook exercise: given the entry chain 1 Y103W , state whether its yeast surface expression is greater than or equal to 0.6.
a: Satisfied

q: Does the reported yeast surface expression for chain 1 G104D Y107F fall at or above the 0.6 mark?
a: Satisfied

q: Does chain 1 S101Q M105Y have a reported yeast surface expression of at least 0.6?
a: Satisfied

q: Record chain 1 S30V M34S ; criterion: yeast surface expression no lower than 0.6. Met?
a: Not satisfied

q: # bool: yeast surface expression of chain 1 W33S W36D >= 0.6
a: Not satisfied
